Entries and their IC50
system: CEM cells HIV-1 protection, formazan growth assay; test: NCI AIDS Antiviral Assay; conditions: measured here: growth of uninfected CEM cells
The response must be a number in µM with no trailing unit.

Prompt: Supply recorded IC50 for "Cn1cc(NC(=O)c2cc(NC(=O)c3cc(NC=O)cn3C)cn2C)cc1C(=O)NCCC(=N)N" here.
Completion: 30.2

* * *

Listed next: entries and their corresponding IC50.
test system: CEM cells HIV-1 protection, formazan growth assay; assay: NCI AIDS Antiviral Assay; conditions: measured here: growth of uninfected CEM cells

{"MOLECULE": "O=c1[nH]c(=O)n(C2CC(F)(F)C(CO)O2)cc1COCC(F)(F)F (stereo not given)", "EXPERIMENTAL TARGET": "CEM cells HIV-1 protection, formazan growth assay", "IC50": "> 174 µM"}
{"MOLECULE": "CN1CCN(/C(N)=C(\\C#N)C(=O)Nc2ccc(Cl)cc2)CC1", "EXPERIMENTAL TARGET": "CEM cells HIV-1 protection, formazan growth assay", "IC50": "> 100 µM"}
{"MOLECULE": "CN1CCN=C1c1nnn(-c2ccc([N+](=O)[O-])cc2)c1-c1ccccc1", "EXPERIMENTAL TARGET": "CEM cells HIV-1 protection, formazan growth assay", "IC50": "145 µM"}

Prompt: Quote CEM cells HIV-1 protection, formazan growth assay IC50 for entry "c1ccc2oc(NCCSSCCNc3nc4ccccc4o3)nc2c1" .
Completion: 10.5 µM

Prompt: Answer briefly: IC50 recorded on CEM cells HIV-1 protection, formazan growth assay for "CCOc1cc2c(cc1O)/C(=N\OC)C[C@@H]1[C@@H]2CC[C@]2(C)[C@@H](O)CC[C@@H]12"
Completion: 0.0724 µM
